TEST DESCRIPTION: NCI Yeast Anticancer Drug Screen. Data for the sgs1 mgt1 strain (AID 161);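 further: 0% = growth of cultures given vehicle only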
ASSAY CONTEXT: S. cerevisiae sgs1 mgt1 strain, at 50.0 µM (retest, dose inferred, filed as 5.0), hits give high values
About 79,000 compounds went through this panel and 15% of them were active in at least one assay; those are over-represented in the sample as a whole. The source made the active and inactive calls. No stated cut-off is given here; in the data, active means growth inhibition above about 70%; inactive means the rest.
VALUE KIND: growth inhibition

>  <LINE NOTATION>
CN(C)CC[N+](C)(C)Cc1ccc(C[N+](C)(C)CC[N+](C)(C)Cc2ccc(CCl)cc2)cc1

>  <VALUE OBSERVED>
2% (inactive)

$$$$
>  <LINE NOTATION>
CCOC(=O)/C=C(\CC(=O)OCC)C(=O)OCC

>  <VALUE OBSERVED>
5% (inactive)

$$$$

Attention now turns to another entry.
input: Given CCCCCCCC(=O)O[C@H]1[C@H]2[C@@H](CC1(C)C)C(=O)[C@]13O[C@H]1C(=O)[C@]1(CO1)[C@]23C , respond with its growth inhibition.
output: 98% (active)

* * *

TEST DESCRIPTION: NCI Yeast Anticancer Drug Screen. Data for the cln2 rad14 strain (AID 165);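 further: 0% = growth equal to vehicle treated cultures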
ASSAY CONTEXT: S. cerevisiae cln2 rad14 strain, at 50.0 µM (retest, dose inferred, filed as 5.0)
The panel holds about 79,000 compounds, 15% with a hit somewhere; the sample as a whole holds those more often. Active and inactive are the calls of the source. No stated cut-off is given here; in the data, active means growth inhibition above about 70%; inactive means the rest.
// one of 1 = active, 0 = inactive, no free text

Take a look at these entries with their results.
>  <COMPOUND>
N#CSC#Cc1ccc(C#CSC#N)cc1

>  <CLASS LABEL>
1

$$$$
>  <COMPOUND>
Cc1ccc(O)c(C(C)c2ccccc2)c1 (configuration not stated)

>  <CLASS LABEL>
1

$$$$
>  <COMPOUND>
CCc1ccc(/C(C)=N/NC(N)=S)cc1

>  <CLASS LABEL>
1

$$$$
>  <COMPOUND>
O=c1cccccc1[O-].O=c1cccccc1[O-].O=c1cccccc1[O-].[Nd+3]

>  <CLASS LABEL>
0

$$$$
>  <COMPOUND>
O=C(O)CSc1cc2c3ccccc3sc2c2ccccc12

>  <CLASS LABEL>
1

$$$$

input: Status in this test for CC1=CCC[C@@H]2C1(C)CCC(C)[C@@]2(C)CC1=CC(=O)C=CC1=O (some centres not stated) ?
output: 1

input: Status in this test for Cc1noc(NS(=O)(=O)c2ccc(N=Nc3cc(N=Nc4ccc(S(=O)(=O)Nc5onc(C)c5C)cc4)c4c(NC(=O)C(Cl)Cl)cccc4c3O)cc2)c1C (tested in a mixture with another compound) ?
output: 0

input: Status in this test for CN(C)/N=C1\CC(c2ccccc2)C(C#N)(C#N)C1(C#N)C#N (configuration not stated) ?
output: 1

input: Status in this test for CC(=O)N1c2ccccc2Sc2ccc3ccc(C(=O)CCl)cc3c21 ?
output: 1

input: Status in this test for OCc1c(-c2cccc3ccccc23)sc(-c2cccc3ccccc23)c1CO ?
output: 1

input: Status in this test for CSC(=S)N/N=C/c1cccc(C)n1 ?
output: 0

input: Status in this test for O=c1ccnc(Sc2ccc([N+](=O)[O-])cc2[N+](=O)[O-])[nH]1 ?
output: 1

input: Status in this test for O=C1/C(=C\c2ccccc2)CN(C(=O)CCN2CCCCC2)C/C1=C/c1ccccc1 ?
output: 1

input: Status in this test for Oc1cccc2ccc(/C=C/c3ccccn3)nc12 ?
output: 1

input: Status in this test for NCCNCCNCc1c2ccccc2c(CNCCNCCN)c2ccccc12 ?
output: 0

input: Status in this test for Cc1cc(Br)c(NC(=O)CBr)cc1C ?
output: 1

input: Status in this test for CCCCCCOC(=O)C(N)Cc1ccc(OC)cc1 (configuration not stated) ?
output: 0

input: Status in this test for COC(=O)c1nc(=S)[nH]c(C(=O)OC)c1C(=O)C(C)(C)C ?
output: 0

* * *

TEST DESCRIPTION: NCI Yeast Anticancer Drug Screen. Data for the mlh1 rad18 strain (AID 175)
ASSAY CONTEXT: S. cerevisiae mlh1 rad18 strain growth inhibition; at 50.0 µM (retest, dose inferred, filed as 5.0); hits give high values
The panel holds about 79,000 compounds, 15% with a hit somewhere; the sample as a whole holds those more often.
// growth inhibition lookup, one value per entry
The figure you give is taken to be in %; do not add the unit.

Use these answered entries as a reference point.
>  <MOLECULE>
COC(=O)/C=C1/OC(c2ccccc2)=CC1=O

>  <VALUE KIND>
growth inhibition

>  <VALUE OBSERVED>
9

$$$$
>  <MOLECULE>
C=CCNCCC1CCCCCC1

>  <VALUE KIND>
growth inhibition

>  <VALUE OBSERVED>
97

$$$$

input: Given CCCCN(CCCC)CCCC(O)c1c2ccc(Cl)cc2nc2ccc(OC)cc12 (stereo not given) , respond with its growth inhibition.
output: 23

input: Given CN1CCCC(C(=O)OCC(=O)C2(O)CCC3C4CCC5=CC(=O)CCC5(C)C4C(O)CC32C)C1 (stereo not given) , respond with its growth inhibition.
output: 35

input: Given CC(C)(C)c1cc(Cl)c(O)c(Cc2cc(C(C)(C)C)cc(Cl)c2O)c1 , respond with its growth inhibition.
output: 85

input: Given O=C(Oc1ccc(O)c2ccccc12)c1ccccc1 , respond with its growth inhibition.
output: 7

* * *

TEST DESCRIPTION: NCI Yeast Anticancer Drug Screen. Data for the cln2 rad14 strain (AID 165);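 further: 0% = growth equal to vehicle treated cultures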
ASSAY CONTEXT: S. cerevisiae cln2 rad14 strain, at 50.0 µM (retest, dose inferred, filed as 5.0), hits give high values
The panel holds about 79,000 compounds, 15% with a hit somewhere; the sample as a whole holds those more often.
VALUE KIND: growth inhibition (%)
The figure you give is taken to be in %; do not add the unit.

Use these answered entries as a reference point.
>  <MOLECULE>
NC(CSC1(c2ccc(Cl)cc2)c2ccccc2-c2ccccc21)C(=O)O (stereo not drawn)

>  <growth inhibition (%)>
59

$$$$
>  <MOLECULE>
CCc1cccc(C(C)C)c1N1C(=O)C(=O)C(c2nc3ccccc3s2)C(=O)C1=O

>  <growth inhibition (%)>
51

$$$$

input: Given Cc1ccc2[nH]c3c(c2c1)[n+]([O-])c1ccccc1[n+]3[O-] , respond with its growth inhibition.
output: -7

* * *

// growth inhibition lookup, one value per entry
TEST DESCRIPTION: NCI Yeast Anticancer Drug Screen. Data for the bub3 strain (AID 167)
ASSAY CONTEXT: S. cerevisiae bub3 mutant strain, at 50.0 µM (retest, dose inferred, filed as 5.0), hits give high values
The panel holds about 79,000 compounds, 15% with a hit somewhere; the sample as a whole holds those more often.
The figure you give is taken to be in %; do not add the unit.

Use these answered entries as a reference point.
>  <COMPOUND>
CN(C)CC(CN(C)C)C(=O)C1CCCCC1

>  <READOUT UNIT>
%

>  <growth inhibition>
98

$$$$
>  <COMPOUND>
O=C(/C(Cl)=N/O)c1ccccc1

>  <READOUT UNIT>
%

>  <growth inhibition>
99

$$$$
>  <COMPOUND>
N#CC(CCCCl)(c1ccccc1)c1ccccc1

>  <READOUT UNIT>
%

>  <growth inhibition>
22

$$$$
>  <COMPOUND>
NCCSC1(O)C(=O)c2ccccc2C1=O

>  <READOUT UNIT>
%

>  <growth inhibition>
43

$$$$
>  <COMPOUND>
Cc1cccc2c1nc1ccccc1[n+]2C

>  <READOUT UNIT>
%

>  <growth inhibition>
91

$$$$
>  <COMPOUND>
C=CCNCCC1CCCCCC1

>  <READOUT UNIT>
%

>  <growth inhibition>
97

$$$$
>  <COMPOUND>
C=CS(=O)(=O)c1ccc(Cl)cc1

>  <READOUT UNIT>
%

>  <growth inhibition>
98

$$$$
>  <COMPOUND>
C/C(=N/NC(=S)Nc1ccc(C)cc1)c1ccccn1

>  <READOUT UNIT>
%

>  <growth inhibition>
99

$$$$
>  <COMPOUND>
CC1CCC(SC2CC(=O)CCC2=O)CC1 (configuration not stated)

>  <READOUT UNIT>
%

>  <growth inhibition>
98

$$$$
>  <COMPOUND>
CNC(=O)OCc1c(COC(=O)NC)c(-c2ccc(OC)cc2)n2c1CCC2

>  <READOUT UNIT>
%

>  <growth inhibition>
46

$$$$

input: Given Fc1cccc(NC(=S)SCc2ccco2)c1 , respond with its growth inhibition.
output: 61

input: Given COc1ccc(C(CC(=O)c2ccccc2)Sc2ccccc2N)cc1 (configuration not stated) , respond with its growth inhibition.
output: 57

* * *

// growth inhibition lookup, one value per entry
TEST DESCRIPTION: NCI Yeast Anticancer Drug Screen. Data for the rad50 strain (AID 155);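 further: 0% = growth of vehicle-only cultures of the same strain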
ASSAY CONTEXT: S. cerevisiae rad50 strain growth inhibition; at 50.0 µM; hits give high values
The panel holds about 79,000 compounds, 15% with a hit somewhere; the sample as a whole holds those more often.
The figure you give is taken to be in %; do not add the unit.

Use these answered entries as a reference point.
>  <MOLECULE>
CC(=O)NC1CCCCC1c1ccc(C2CCCCC2NC(C)=O)cc1 (stereo unspecified)

>  <READOUT UNIT>
%

>  <growth inhibition>
-11.9

$$$$
>  <MOLECULE>
CNc1ccc(C(=O)NC(CCCCNC(=O)OCc2ccccc2)C(=O)OC)cc1 (stereo unspecified)

>  <READOUT UNIT>
%

>  <growth inhibition>
93.8

$$$$
>  <MOLECULE>
S=C(NN1CCOCC1)SSC(=S)NN1CCOCC1

>  <READOUT UNIT>
%

>  <growth inhibition>
99.5

$$$$
>  <MOLECULE>
Cc1nc2c(cnn2C)cc1CCc1ccccc1

>  <READOUT UNIT>
%

>  <growth inhibition>
14.7

$$$$
>  <MOLECULE>
C=C(C)C(CC=C(C)C)Cc1c(O)cc(OC)c2c1OC(c1ccc(O)cc1O)C(O)C2=O (stereo unspecified)

>  <READOUT UNIT>
%

>  <growth inhibition>
34.1

$$$$
>  <MOLECULE>
NC(=O)C1(Br)C=[N+](Cc2ccccc2)CCC1 (stereo unspecified)

>  <READOUT UNIT>
%

>  <growth inhibition>
29.2

$$$$
>  <MOLECULE>
Nc1ccc(C(=O)/C=C/c2ccccn2)cc1

>  <READOUT UNIT>
%

>  <growth inhibition>
8.2

$$$$
>  <MOLECULE>
Cc1ccc(C2=Nc3c(c(C)nn3-c3ccccc3)N=C(C(=O)O)C2)cc1

>  <READOUT UNIT>
%

>  <growth inhibition>
76.2

$$$$
>  <MOLECULE>
CSC(=S)N/N=C(\C)c1ccc[nH]1

>  <READOUT UNIT>
%

>  <growth inhibition>
83.8

$$$$
>  <MOLECULE>
CCc1ccc(C)nc1

>  <READOUT UNIT>
%

>  <growth inhibition>
20.9

$$$$

input: Given O=C(CC(=O)C(F)(F)F)c1ccc(-c2ccccc2)cc1 , respond with its growth inhibition.
output: 97

input: Given O=C1c2c(Br)c(Br)c(Br)c(Br)c2C(=O)N1c1nccs1 , respond with its growth inhibition.
output: 75.4

input: Given CCOC(=O)C(NC(C)=O)[CH](c1ccccc1)[Sn]([Cl])([c]1ccccc1)[c]1ccccc1 (stereo unspecified) , respond with its growth inhibition.
output: 59.4

input: Given Cc1nc2ccc(N=Nc3c(O)ccc4ccccc34)cc2[nH]1 , respond with its growth inhibition.
output: 85.3

input: Given O=C(O)c1c(Cl)c(Cl)c(Cl)c(Cl)c1-c1c2ccc(=O)cc-2oc2cc(O)ccc12 , respond with its growth inhibition.
output: 86.7

input: Given Cc1ccc(S(=O)(=O)NCCCSCCO)cc1 , respond with its growth inhibition.
output: 80.2

input: Given CCOC(=O)C(Br)C(Br)c1cccc(Cl)c1 (stereo unspecified) , respond with its growth inhibition.
output: 99.5

input: Given Nn1c(-c2ccccc2)nn(C(=O)c2ccccc2)c1=O , respond with its growth inhibition.
output: 39.5

input: Given COC12CC(=O)C(C(C)=O)=C(O)C1(C)c1c(OC(C)=O)c(C)c(O)c(C(C)=O)c1O2 (stereo unspecified) , respond with its growth inhibition.
output: 45.1

input: Given O=C(O)c1ccc2c(c1)CCCC2 , respond with its growth inhibition.
output: 16.2

input: Given CCCC(=O)c1cc(O)c(O)c(CN(C)Cc2cc(Cl)cc(C)c2O)c1O , respond with its growth inhibition.
output: 55
